Readings of EC50 for the listed compounds
# Tested on: Rhinovirus 56
# protocol: Anti-rhinovirus activity, cytopathic effect inhibition / neutral red dye uptake, type 56
# Format: cell-based
# experimental-setup: Enterovirus, WI-38; Table II; read-out: MIC 50 Rhinovirus Type 56
Hi! Could you send only the number? It should be in µg/mL, unit omitted.

Some entries whose results are on file:
Cc1cc(CCCCCCCOc2cc(C)nc3ccccc23)on1 : 5
Cc1cc(CCCCCCCOc2ccc(C3=NCCO3)cc2)on1 [Disoxaril, reference compound] : 25
Cc1csc(CCCCCCOc2ccc3oc4ccccc4c3c2)n1 : 5

query: Param readout= EC50; system= Rhinovirus 56; entry= `Cc1csc(CCCCCCCOc2ccc3oc4ccccc4c3c2)n1` ; returns value.
result: 5

query: Repeat for the following compound: `Cc1cc(CCCCCCCOc2ccc3oc4ccccc4c3c2)on1`
result: 5

query: Repeat for the following compound: `c1ccc2c(c1)oc1ccc(OCCCCCCc3ccns3)cc12`
result: 10

query: Repeat for the following compound: `Cc1cnsc1CCCCCCOc1ccc2oc3ccccc3c2c1`
result: 10

====

Readings of EC50 for the listed compounds
# Test system: Rhinovirus 63
# protocol: Anti-rhinovirus activity, cytopathic effect inhibition / neutral red dye uptake, type 63
# Assay type: cell-based
# experimental-setup: Enterovirus, WI-38; Table II; read-out: MIC 50 Rhinovirus Type 63
Hi! Could you send only the number? It should be in µg/mL, unit omitted.

c1ccc2c(c1)oc1ccc(OCCCCCCc3ccns3)cc12 : 5
Cc1cnsc1CCCCCCOc1ccc2oc3ccccc3c2c1 : 10
Cc1cc(CCCCCCCOc2ccc3oc4ccccc4c3c2)on1 : 10
Cc1cc(CCCCCCCOc2ccc(C3=NCCO3)cc2)on1 [Disoxaril, reference compound] : 25
Cc1cc(CCCCCCCOc2cc(C)nc3ccccc23)on1 : 5

For the next question, use this compound.
query: Query: EC50; subject: `Cc1csc(CCCCCCOc2ccc3oc4ccccc4c3c2)n1`
result: 25

====

# Tested on: WI38 cells
# protocol: Toxicity to WI38 cells (change in morphology in / growth inhibition of 25% of the cells)
# Type: cell-based
# experimental-setup: Table I; concentration with change in morphology in 25% of WI38 cells
Readings of Toxicity for the listed molecules
Hi! Could you send only the number? It should be in µg/mL, unit omitted.

query: Query: Toxicity; subject: `Cc1cc(CCCCCCCOC23CC4CC(CC(C4)C2)C3)on1`
result: 50

====

# Tested on: Rhinovirus 86
# protocol: Anti-rhinovirus activity, cytopathic effect inhibition / neutral red dye uptake, type 86
# Assay type: cell-based
# experimental-setup: Enterovirus, WI-38; Table II; read-out: MIC 50 Rhinovirus Type 86
readout-type: EC50 (µg/mL)
Hi! Could you send only the number? It should be in µg/mL, unit omitted.

Some entries whose results are on file:
c1ccc2c(c1)oc1ccc(OCCCCCCc3ccns3)cc12 : 10
Cc1cc(CCCCCCCOc2ccc(C3=NCCO3)cc2)on1 [Disoxaril, reference compound] : 0.5
Cc1csc(CCCCCCOc2ccc3oc4ccccc4c3c2)n1 : 1
Cc1cnsc1CCCCCCOc1ccc2oc3ccccc3c2c1 : 10
Cc1cc(CCCCCCCOc2cc(C)nc3ccccc23)on1 : 5

For the next question, use this compound.
query: Query: EC50; subject: `Cc1cc(CCCCCCCOc2ccc3oc4ccccc4c3c2)on1`
result: 0.5
